The reported measurements were obtained from patent US20130102009A1.

Target: SIRT1 (Homo sapiens, UniProt Q96EB6)
Sequence (Q96EB6 1-747): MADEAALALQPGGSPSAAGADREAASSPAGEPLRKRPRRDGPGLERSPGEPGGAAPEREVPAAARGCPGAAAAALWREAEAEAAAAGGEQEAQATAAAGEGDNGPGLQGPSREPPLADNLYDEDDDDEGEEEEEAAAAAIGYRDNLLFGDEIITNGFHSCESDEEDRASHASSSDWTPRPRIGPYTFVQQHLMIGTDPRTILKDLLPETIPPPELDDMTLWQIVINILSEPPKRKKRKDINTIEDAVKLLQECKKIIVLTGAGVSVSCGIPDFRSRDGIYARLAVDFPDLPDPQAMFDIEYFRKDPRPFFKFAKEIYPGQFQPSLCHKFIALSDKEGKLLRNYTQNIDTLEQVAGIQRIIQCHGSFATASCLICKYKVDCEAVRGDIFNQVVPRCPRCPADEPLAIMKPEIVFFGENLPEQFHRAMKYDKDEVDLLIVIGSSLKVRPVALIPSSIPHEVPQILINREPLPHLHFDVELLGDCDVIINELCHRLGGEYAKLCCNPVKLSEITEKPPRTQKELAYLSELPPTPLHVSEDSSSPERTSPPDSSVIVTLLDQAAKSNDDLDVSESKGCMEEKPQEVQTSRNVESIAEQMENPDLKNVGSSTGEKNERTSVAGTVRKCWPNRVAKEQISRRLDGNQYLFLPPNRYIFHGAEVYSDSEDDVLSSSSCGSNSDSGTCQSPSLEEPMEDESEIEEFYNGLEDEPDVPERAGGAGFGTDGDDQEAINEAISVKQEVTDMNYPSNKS
reported.endpoint: pKi
Bear in mind: pKi is minus log10 of a mol/L concentration; give just that figure.

Past entries and their recorded results:
• CCCCc1nc(NC2CCNCC2)cc(C(=O)Nc2ccccc2-c2nc3cc(COC4CCNCC4)cnc3s2)n1 [Compound 10] = 5.05
• CCCCc1nc(NCCNC)cc(C(=O)Nc2ccccc2-c2nc3cc(COC4CCNCC4)cnc3s2)n1 [Compound 12] = 5.05

Kindly review the next molecule as well.
Prompt: Sample CC(C)Cc1nc(NC2CCNCC2)cc(C(=O)Nc2ccccc2-c2nc3cc(COC4CCNCC4)cnc3s2)n1 [Compound 11] — what was its pKi?
Response: 5.00

* * *

In this section we review reported Kd values for a set of compounds.
biological target: Ac-Arg-His-Lys-Lys^Ac-Trp-NH2; test: ITC binding of STACs to Ac-Arg-His-Lys-Lys^Ac-X, X=TrpNH2; conditions: 10% DMSO for SRT1720, SRT2183 and 10, no cosolvent for SRT1460
Reply with just the number (in µM).

- O=C(Nc1ccccc1-c1cn2c(CN3CCNCC3)csc2n1)c1cnc2ccccc2n1 [SRT1720]: 150

Kindly review the next compound as well.
Prompt: Sample CCCCc1nc(NC2CCNCC2)cc(C(=O)Nc2ccccc2-c2nc3cc(COC4CCNCC4)cnc3s2)n1 [Compound 10] — what was its Kd?
Response: 25

* * *

molecular target: SIRT1 (Homo sapiens); experiment: Continuous PNC1-GDH-coupled assay of SIRT1-catalyzed deacetylation of Ac-Arg-His-Lys-Lys^Ac-X with STACs; assay type: biochemical; settings: [SRT]o = 5 μM, [peptide]o ≦ Km, [NAD+] = 70 μM; Ac-Arg-His-Lys-Lys^Ac-NH2
In this section we review reported Relative Velocity, X=NH2 values for a set of compounds.
Keep it simple and answer with nothing but the number.

Past entries and their recorded results:
* O=C(Nc1ccccc1-c1cn2c(CN3CCNCC3)csc2n1)c1cnc2ccccc2n1 | 1.1
* O=C(Nc1ccccc1-c1cn2c(CN3CC[C@@H](O)C3)csc2n1)c1ccc2ccccc2c1 | 1.2
* COc1cc(C(=O)Nc2ccccc2-c2cn3c(CN4CCNCC4)csc3n2)cc(OC)c1OC | 0.8

Kindly review the next compound as well.
Prompt: Sample `CCCCc1nc(NC2CCNCC2)cc(C(=O)Nc2ccccc2-c2nc3cc(COC4CCNCC4)cnc3s2)n1` — what was its Relative Velocity, X=NH2?
Response: 0.6
